Measured values drawn from patent US8975235B2 for this set.

- study_system: Human LPA1 (Homo sapiens)
- experiment_summary: Beta-Arrestin based assay for human LPA1R antagonists (PathHunter)
- setup_conditions: CHO cells stably expressing ProLink tagged human LPA1R; agonist LPA 0.5 micromolar
# reported EC50; entries follow

Here's what some known entries look like.
>>> result("Cc1nsc(-c2ccc(-c3ccc(C4(C(=O)O)CC4)cc3)cc2)c1NC(=O)OCc1cccc(Cl)c1")
"< 50 nM"
>>> result("Cc1noc(-c2ccc(-c3ccc(N4CCC[C@@H](C(=O)O)C4)cc3)cc2)c1NC(=O)O[C@H](C)c1ccccc1Cl")
"50 to 500 nM"
>>> result("C[C@@H](OC(=O)Nc1c(-c2ccc(-c3ccc(C4(C(=O)O)CC4)cc3)cc2)oc2cnccc12)c1ccccc1Cl")
"< 50 nM"

Q: Please look up its EC50: Cc1noc(-c2ccc(-c3ccc(C(C(=O)O)c4ccccc4)cc3)cc2)c1NC(=O)O[C@H](C)c1ccccc1Cl (single isomer, unassigned) [Compound 14]
A: < 50 nM

Q: Please look up its EC50: O=C(O)Cc1ccc(N2CCN(C(=O)CCCNC(=O)OCc3ccccc3)CC2)cc1
A: > 500 nM

Q: Please look up its EC50: Cc1nsc(C#Cc2ccc3cc(CC(=O)O)ccc3c2)c1NC(=O)O[C@H](C)c1ccccc1Cl
A: 50 to 500 nM

Q: Please look up its EC50: Cc1noc(-c2ccc(-c3ccc(N4CCC[C@H](C(=O)O)C4)cc3)cc2)c1NC(=O)O[C@H](C)c1ccccc1
A: 50 to 500 nM

Q: Please look up its EC50: Cc1nsc(-c2ccc(-c3ccc(C4(C(=O)O)CC4)cc3)c(F)c2)c1NC(=O)O[C@H](C)c1ccccc1Cl
A: < 50 nM

Q: Please look up its EC50: C[C@@H](OC(=O)Nc1ccn(-c2ccc(-c3ccc(C4(C(=O)O)CC4)cc3)cc2)n1)c1ccccc1Cl
A: > 500 nM

Q: Please look up its EC50: C[C@@H](OC(=O)Nc1scnc1-c1ccc(-c2ccc(C3(C(=O)O)CC3)cc2)cc1)c1ccccc1
A: 50 to 500 nM

Q: Please look up its EC50: Cc1noc(-c2ccc(-c3ccc(C4(C(=O)O)CC4)cc3)cc2)c1NC(=O)O[C@H](C)c1ccccc1
A: < 50 nM

Q: Please look up its EC50: Cc1snc(-c2ccc(-c3ccc(C4(C(=O)O)CC4)cc3)cc2)c1NC(=O)O[C@H](C)c1ccccc1
A: < 50 nM

Q: Please look up its EC50: C[C@@H](OC(=O)Nc1cnnn1-c1ccc(-c2ccc(C3(C(=O)O)CC3)cc2)cc1)c1ccccc1
A: 50 to 500 nM

Q: Please look up its EC50: Cc1nc(-c2ccc(-c3ccc(C4(C(=O)O)CC4)cc3)cc2)c(NC(=O)O[C@H](C)c2ccccc2Cl)o1
A: 50 to 500 nM

* * *

- study_system: Human LPA1 (Homo sapiens, UniProt Q92633)
- Sequence (Q92633 whole entry): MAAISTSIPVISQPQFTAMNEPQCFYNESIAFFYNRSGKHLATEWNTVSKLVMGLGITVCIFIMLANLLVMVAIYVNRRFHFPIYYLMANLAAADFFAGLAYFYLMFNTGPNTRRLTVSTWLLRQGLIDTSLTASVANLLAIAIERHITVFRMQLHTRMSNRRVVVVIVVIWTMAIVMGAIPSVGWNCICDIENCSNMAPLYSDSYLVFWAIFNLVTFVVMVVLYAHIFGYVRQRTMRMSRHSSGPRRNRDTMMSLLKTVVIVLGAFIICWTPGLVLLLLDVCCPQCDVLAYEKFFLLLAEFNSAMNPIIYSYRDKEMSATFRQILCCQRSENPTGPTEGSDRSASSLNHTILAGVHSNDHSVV
- experiment_summary: Beta-Arrestin based assay for human LPA1R antagonists (PathHunter)
- setup_conditions: CHO cells stably expressing ProLink tagged human LPA1R; agonist LPA 0.5 micromolar
readout: EC50

Here's what some known entries look like.
>>> result("O=C(Nc1ncsc1-c1ccc(-c2ccc(C3(C(=O)O)CC3)cc2)cc1)OCc1ccccc1")
"> 0.5 µM"
>>> result("Cc1nc(NC(=O)O[C@H](C)c2ccccc2)n(-c2ccc(-c3ccc(C4(C(=O)O)CC4)cc3)cc2)n1")
"> 0.5 µM"
>>> result("Cc1nsc(C#Cc2ccc3cc(C4(C(=O)O)CC4)ccc3c2)c1NC(=O)O[C@H](C)c1ccccc1")
"< 0.05 µM"

Q: Please look up its EC50: Cc1noc(C#Cc2ccc3cc(C4(C(=O)O)CC4)ccc3c2)c1NC(=O)O[C@H](C)c1ccccc1Cl
A: < 0.05 µM

Q: Please look up its EC50: C[C@@H](OC(=O)Nc1oncc1-c1ccc(-c2ccc(C3(C(=O)O)CC3)cc2)cc1)c1ccccc1
A: < 0.05 µM

Q: Please look up its EC50: CN(CC(=O)N1CCC(c2ccc(CC(=O)O)cc2)CC1)C(=O)OCc1ccccc1
A: > 0.5 µM

Q: Please look up its EC50: Cc1nsc(-c2ccc(-c3ccc(C4(C(=O)O)CC4)cc3)c(Cl)c2)c1NC(=O)O[C@H](C)c1ccccc1Cl
A: < 0.05 µM

Q: Please look up its EC50: Cc1nsc(-c2ccc(-c3ccc(C4(C(=O)O)CC4)cc3)cc2)c1NC(=O)OCc1ccc(Cl)cc1
A: 0.05 to 0.5 µM

Q: Please look up its EC50: C[C@@H](OC(=O)Nc1snnc1-c1ccc(-c2ccc(C3(C(=O)O)CC3)cc2)cc1)c1ccccc1Cl
A: 0.05 to 0.5 µM

* * *

- study_system: Human LPA1 (Homo sapiens, UniProt Q92633)
- experiment_summary: Beta-Arrestin based assay for human LPA1R antagonists (PathHunter)
- setup_conditions: CHO cells stably expressing ProLink tagged human LPA1R; agonist LPA 0.5 micromolar
readout: EC50

Here's what some known entries look like.
>>> result("C[C@@H](OC(=O)Nc1nn(C)nc1-c1ccc(-c2ccc(C3(C(=O)O)CC3)cc2)cc1)c1ccccc1 [Compound 225]")
"> 500 nM"
>>> result("Cc1noc(-c2ccc(-c3ccc(C4(C(=O)O)CNC4)cc3)cc2)c1NC(=O)O[C@H](C)c1ccccc1Cl [Compound 34]")
"> 500 nM"
>>> result("Cc1ccccc1COC(=O)Nc1c(C)nsc1-c1ccc(-c2ccc(C3(C(=O)O)CC3)cc2)cc1 [Compound 85]")
"50 to 500 nM"
>>> result("Cc1nsc(-c2ccc(-c3ccc(C4(C(=O)O)CCCC4)cc3)cc2)c1NC(=O)O[C@H](C)c1ccccc1 [Compound 125]")
"50 to 500 nM"
>>> result("Cc1nsc(-c2cc(F)c(-c3ccc(C4(C(=O)O)CC4)cc3)cc2F)c1NC(=O)O[C@H](C)c1ccccc1Cl [Compound 181]")
"< 50 nM"
>>> result("Cc1nsc(-c2ccc(-c3ccc(C4(C(=O)O)CCCCC4)cc3)cc2)c1NC(=O)O[C@H](C)c1ccccc1 [Compound 126]")
"50 to 500 nM"
>>> result("Cc1ccc2c(NC(=O)O[C@H](C)c3ccccc3Cl)c(-c3ccc(-c4ccc(C5(C(=O)O)CC5)cc4)cc3)oc2c1 [Compound 52]")
"> 500 nM"
>>> result("Cc1noc(C#Cc2ccc3cc(C4(C(=O)O)CC4)ccc3c2)c1NC(=O)O[C@H](C)c1ccccc1 [Compound 130]")
"< 50 nM"

Q: Test system Human LPA1 (Homo sapiens, UniProt Q92633); read-out EC50; what value for Cc1nsc(-c2ccc(-c3ccc(C4(C(=O)O)CC4)c(Cl)c3)cc2)c1NC(=O)O[C@H](C)c1ccccc1Cl [Compound 191] ?
A: < 50 nM

Q: Test system Human LPA1 (Homo sapiens, UniProt Q92633); read-out EC50; what value for Cc1nnn(-c2ccc(-c3ccc(C4(C(=O)O)CC4)cc3)cc2)c1NC(=O)OCc1ccccc1 [Compound 157] ?
A: 50 to 500 nM

Q: Test system Human LPA1 (Homo sapiens, UniProt Q92633); read-out EC50; what value for O=C(O)Cc1ccc(N2CCN(C(=O)CNC(=O)OCc3ccccc3)CC2)cc1 [Compound 269] ?
A: > 500 nM

Q: Test system Human LPA1 (Homo sapiens, UniProt Q92633); read-out EC50; what value for C[C@@H](OC(=O)Nc1c(-c2ccc(-c3ccc(C4(C(=O)O)CC4)cc3)cc2)cnn1C)c1ccccc1Cl [Compound 171] ?
A: < 50 nM

* * *

- study_system: Human LPA1 (Homo sapiens, UniProt Q92633)
- experiment_summary: Beta-Arrestin based assay for human LPA1R antagonists (PathHunter)
- setup_conditions: CHO cells stably expressing ProLink tagged human LPA1R; agonist LPA 0.5 micromolar
pEC50: −log10 of the molar value.
# reported pEC50; entries follow

Here's what some known entries look like.
>>> result("Cc1nsc(-c2ccc(-c3ccc(C4(C(=O)O)CC4)cc3)cc2)c1NC(=O)OCc1cccc(Cl)c1Cl [Compound 101]")
"< 6.30"
>>> result("C[C@@H](OC(=O)Nc1nncn1-c1ccc(-c2ccc(C3(C(=O)O)CC3)cc2)cc1)c1ccccc1 [Compound 158]")
"< 6.30"

# input for lookup
Q: Please look up its pEC50: Cc1noc(-c2ccc3c(c2)CCc2cc(C4(C(=O)O)CC4)ccc2-3)c1NC(=O)O[C@H](C)c1ccccc1Cl [Compound 248]
A: > 7.30

* * *

- study_system: Human LPA1 (Homo sapiens)
- experiment_summary: Beta-Arrestin based assay for human LPA1R antagonists (PathHunter)
- setup_conditions: CHO cells stably expressing ProLink tagged human LPA1R; agonist LPA 0.5 micromolar
readout: EC50

Here's what some known entries look like.
>>> result("Cc1noc(-c2ccc(-c3ccc(C4(C(=O)O)CN(Cc5ccccc5)C4)cc3)cc2)c1NC(=O)O[C@H](C)c1ccccc1Cl")
"< 50 nM"
>>> result("C[C@@H](OC(=O)Nc1c(-c2ccc(-c3ccc(C4(C(=O)O)CC4)cc3)cc2)sc2ccccc12)c1ccccc1Cl")
"50 to 500 nM"
>>> result("Cc1noc(C#Cc2cc3sc(C4(C(=O)O)CC4)cc3s2)c1NC(=O)O[C@H](C)c1ccccc1")
"< 50 nM"
>>> result("C[C@@H](OC(=O)Nc1nonc1-c1ccc(-c2ccc(C3(C(=O)O)CC3)cc2)cc1)c1ccccc1Cl")
"< 50 nM"

# input for lookup
Q: Please look up its EC50: COC(=O)N1CC(C(=O)O)(c2ccc(-c3ccc(-c4onc(C)c4NC(=O)O[C@H](C)c4ccccc4Cl)cc3)cc2)C1
A: < 50 nM
